IC50 by entry:
- testedOn: KDM4C (JMJD2C) (Homo sapiens, UniProt Q9H3R0)
- Construct: KDM4C; BRIC, Denmark; 1-349; E. coli; host or cells: E. coli
- Sequence (Q9H3R0 1-349): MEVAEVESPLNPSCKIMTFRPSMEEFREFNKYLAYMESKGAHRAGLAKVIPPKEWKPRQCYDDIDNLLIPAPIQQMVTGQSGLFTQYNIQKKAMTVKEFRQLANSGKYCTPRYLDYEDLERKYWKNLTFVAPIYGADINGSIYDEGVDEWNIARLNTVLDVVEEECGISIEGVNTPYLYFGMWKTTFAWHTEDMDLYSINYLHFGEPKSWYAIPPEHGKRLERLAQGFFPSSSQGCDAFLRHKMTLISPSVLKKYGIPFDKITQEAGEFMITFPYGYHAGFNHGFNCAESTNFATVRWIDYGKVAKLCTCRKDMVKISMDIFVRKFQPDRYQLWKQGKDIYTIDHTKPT
- methodNotes: Histone lysine demethylase AlphaLISA assay, KDM4C
- Assay type: biochemical
- measurementConditions: AlphaLISA, in vitro; read-out: HDME Inhibition KDM4C

# annotated cases, reported IC50 shown
[[record]]
molecule = "CCCC(C)c1cnc(CNCc2cc(C(=O)O)cc(C)n2)n1Cc1ccc(F)cc1 (stereo not drawn)"
parameter = "IC50"
measuredresult = "1.37 µM"

[[record]]
molecule = "Cc1cc(C(=O)O)cc(CNCCc2nncn2Cc2ccc(C(F)(F)F)cc2)n1"
parameter = "IC50"
measuredresult = "> 10 µM"

[[record]]
molecule = "Cc1nnc(CNCc2cc(C(=O)O)cc(CO)n2)n1CCCc1ccccc1"
parameter = "IC50"
measuredresult = "> 10 µM"

[[record]]
molecule = "Cc1cc(C(=O)O)cc(CNCc2ncc(C(C)O)n2Cc2ccc(F)cc2)n1 (stereo not drawn)"
parameter = "IC50"
measuredresult = "> 10 µM"

[[record]]
molecule = "Cc1cc(C(=O)O)cc(CNCc2nnc(C(C)(C)C)n2Cc2ccc(F)cc2)n1"
parameter = "IC50"
measuredresult = "> 10 µM"


INPUT: Give the reported IC50 for this molecule. Cc1cc(OCc2ccccc2)c(CCNCc2cc(C(=O)O)cc(CO)n2)nn1
OUTPUT: > 10 µM

INPUT: Give the reported IC50 for this molecule. Cc1cc(C(=O)O)cc(CNCc2nnc(CCN(C)C)n2Cc2ccc(F)cc2)n1
OUTPUT: > 10 µM

INPUT: Give the reported IC50 for this molecule. COCc1cc(C(=O)O)cc(CNCc2nccn2Cc2ccc(F)cc2)n1
OUTPUT: > 10 µM

INPUT: Give the reported IC50 for this molecule. Cc1cc(C(=O)O)cc(CNCc2nccn2Cc2ccc(F)cc2)n1
OUTPUT: > 10 µM

INPUT: Give the reported IC50 for this molecule. CC(O)c1nnc(CNCc2cc(C(=O)O)cc(CO)n2)n1Cc1ccc(F)cc1 (stereo not drawn)
OUTPUT: > 10 µM

INPUT: Give the reported IC50 for this molecule. CCC(C)c1cnc(CNCc2cc(C(=O)O)cc(C)n2)n1Cc1ccc(F)cc1 (stereo not drawn)
OUTPUT: 0.299 µM

INPUT: Give the reported IC50 for this molecule. CCCCc1cccnc1CCNCc1cc(C(=O)O)cc(C)n1
OUTPUT: > 10 µM

====

- testedOn: KDM5B (PLU-1) (Homo sapiens)
- Construct: BRIC; 1-809; E. coli; host or cells: E. coli
- Sequence (Q9UGL1 1-809): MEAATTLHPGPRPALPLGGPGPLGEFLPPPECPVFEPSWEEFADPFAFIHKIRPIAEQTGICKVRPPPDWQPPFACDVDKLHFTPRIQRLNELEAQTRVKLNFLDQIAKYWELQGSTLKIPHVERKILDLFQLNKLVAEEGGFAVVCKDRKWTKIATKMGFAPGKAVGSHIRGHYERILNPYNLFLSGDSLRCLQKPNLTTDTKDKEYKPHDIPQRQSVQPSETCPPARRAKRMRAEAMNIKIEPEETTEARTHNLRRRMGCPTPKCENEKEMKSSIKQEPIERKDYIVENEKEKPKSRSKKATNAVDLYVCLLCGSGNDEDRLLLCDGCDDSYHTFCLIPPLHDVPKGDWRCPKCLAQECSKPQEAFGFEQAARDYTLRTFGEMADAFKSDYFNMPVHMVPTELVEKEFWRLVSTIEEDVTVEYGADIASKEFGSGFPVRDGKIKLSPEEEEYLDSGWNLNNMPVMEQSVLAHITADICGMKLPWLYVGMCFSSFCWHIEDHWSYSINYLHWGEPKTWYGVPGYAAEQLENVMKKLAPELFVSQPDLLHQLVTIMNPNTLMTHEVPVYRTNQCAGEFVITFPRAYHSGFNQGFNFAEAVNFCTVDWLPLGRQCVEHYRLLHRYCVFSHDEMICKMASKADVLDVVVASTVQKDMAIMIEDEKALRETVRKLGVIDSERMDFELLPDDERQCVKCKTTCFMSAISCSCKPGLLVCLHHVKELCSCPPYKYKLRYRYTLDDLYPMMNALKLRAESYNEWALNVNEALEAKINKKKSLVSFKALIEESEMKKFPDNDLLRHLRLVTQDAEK
- methodNotes: Histone lysine demethylase AlphaLISA assay, KDM5B
- Format: biochemical
- measurementConditions: AlphaLISA, in vitro; read-out: HDME Inhibition KDM5B
pIC50: −log10 of the molar value.
parameter: pIC50

# annotated cases, reported pIC50 shown
[[record]]
molecule = "Cc1cc(C(=O)O)cc(CNCc2nnc3n2C(c2ccccc2)CNC3)n1 (stereo not drawn) [Compound 113]"
measuredresult = "< 5.00"

[[record]]
molecule = "CCCc1nnc(CNCc2cc(C(=O)O)cc(CO)n2)n1Cc1ccc(F)cc1 [Compound 73]"
measuredresult = "< 5.00"

[[record]]
molecule = "O=C(O)c1cc(CO)nc(CNCc2nnc(-c3cccs3)n2CCCc2ccccc2)c1 [Compound 95]"
measuredresult = "< 5.00"


INPUT: Give the reported pIC50 for this molecule. Cc1cc(C(=O)O)cc(CNCc2nnc(Cc3cccs3)n2Cc2ccc(F)cc2)n1 [Compound 40]
OUTPUT: < 5.00

INPUT: Give the reported pIC50 for this molecule. Cc1cc(C(=O)O)cc(CNCc2ncc(C(C)C)n2Cc2ccc(F)cc2)n1 [Compound 8]
OUTPUT: < 5.00

INPUT: Give the reported pIC50 for this molecule. CCn1cnc2cc(Cn3cnnc3CNCc3cc(C(=O)O)cc(C)n3)ccc21 [Compound 41]
OUTPUT: < 5.00
